Target: T1, full-length untagged human GPNMB expressed on cells (human, UniProt Q14956 23-572)
T1 sequence: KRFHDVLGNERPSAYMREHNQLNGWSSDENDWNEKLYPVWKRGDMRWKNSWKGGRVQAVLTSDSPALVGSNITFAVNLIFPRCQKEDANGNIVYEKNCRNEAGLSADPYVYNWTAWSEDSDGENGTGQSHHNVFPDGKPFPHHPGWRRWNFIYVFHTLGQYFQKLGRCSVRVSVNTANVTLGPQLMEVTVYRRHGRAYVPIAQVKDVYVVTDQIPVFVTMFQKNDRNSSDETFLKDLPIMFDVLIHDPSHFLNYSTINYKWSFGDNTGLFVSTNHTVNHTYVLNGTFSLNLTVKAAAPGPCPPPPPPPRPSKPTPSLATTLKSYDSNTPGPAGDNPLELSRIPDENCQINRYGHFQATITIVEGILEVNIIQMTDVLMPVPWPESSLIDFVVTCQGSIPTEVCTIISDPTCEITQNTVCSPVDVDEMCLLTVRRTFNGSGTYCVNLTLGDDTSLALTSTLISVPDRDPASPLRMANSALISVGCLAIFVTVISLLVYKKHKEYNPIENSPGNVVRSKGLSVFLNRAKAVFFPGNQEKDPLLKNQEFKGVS
Assay: cell-based or functional assay
Experimental endpoint: PDL1 (FoB)

- anti-GPNMB antibody GPN-43 (antibody, human IgG1, V domains shown, chimeric) VH: EVQLQQSGPELVKPGASVKISCKASGYTFTDYYMNWVRQSHGKSLEWIGDINPYHGGSTYNQKIKVKATLTVDKSSSTAYMELRSLTSEDSAVYYCARNWPYFDYWGQGTTLTVSS VL: DIQMTQSPASLSASVGETVTITCRASENIYSFLVWYQQKQGKSPQLLVYNAKTLAEGVPSRFSGSGSGTQFSLKISSLQPEDFGSYYCQHHFGTPPYTFGGGTKLEIK: 1.05
- anti-GPNMB antibody GPN-24 (antibody, human IgG1, V domains shown, chimeric) VH: QVQLQQPGAELVKPGASVKMSCKASGYTFTSYWITWVKQRPGQGLEWIGDIHPGSGRSNYNEKFKNKATLNVDTSSSTVYMQLSSLTSEDSAVYYCARDYLFAYWGQGTLVTVSA VL: DIQMTQSPSSLSASLGERVSLTCRASQEISGYLSWLQQKPDGTIKRLIYSTSTLDSGVPKRFSGSRSGSDYSLTISSLESEDFADYYCLQYTSSPPTFGGGTKLEIK: 1.48
- anti-GPNMB antibody GPN-31 (antibody, human IgG1, V domains shown, chimeric) VH: EVQLQQSGPELVKPGASVKISCKASGYSFTGYYMNWVKQSPEKNLEWIGEINPNTGGTTYNQKFKAKATLTVDKSSTTAYMQLKSLTSEDSAVYYCTRPASWFDYWGQGTLVTVSA VL: DIQMTQSPSSLSASLGERVSLTCRASQEISGHLSWLQQKPDGTIKRLIYAASTLDSGVPKRFSGRRSGSDYSLTISSLESEDFADYYCLQYASYPYTFGGGTKLAIK: 1.82

// provenance: patent US20250270343A1
